Tested on: NCI-H460 lung
Method: NCI-60 one-dose screen, 48 h (100 = growth as untreated, 0 = no growth, -100 = all killed)
Test Parameters: 10 µM unless noted
The panel holds about 83,000 compounds, 20% with a hit somewhere; the sample as a whole holds those more often. Active and inactive are the calls of the source. How the source made its calls: active means growth percent below 10; inactive means the rest. Where a SMILES comes first, the peptide text is derived from it.
Readout Label: growth

Past entries and their recorded results:
Compound	growth
NC(Cc1ccccc1)C(=O)NC(Cc1ccccc1)C(=O)O (stereo not drawn) (H-Phe-Phe-OH; configuration not given here)	104% (inactive)
CCCCNc1ccc(Nc2ccccc2)cc1	76.7% (inactive)
CCCCCCCCCCNC(=O)CI	101% (inactive)
Nc1nc(N)c2[nH]cnc2n1	96.2% (inactive)
CC1=C/C(O)CC(=O)Cc2nc(co2)C(=O)N2CCC=C2C(=O)OC(C(C)C)C(C)/C=C\C(=O)NC/C=C\1 (configuration not stated)	102% (inactive)

Incoming: Returns the measured growth for the input compound. Input: CC1CCC(C(C)C)C(NNC(N)=O)C1 (configuration not stated)
Outgoing: 104% (inactive)

Incoming: Returns the measured growth for the input compound. Input: C/C(=C\c1ccccc1)c1ccccn1
Outgoing: 105% (inactive)

Incoming: Returns the measured growth for the input compound. Input: OC1COC(OCc2ccccc2)C(O)C1O (configuration not stated)
Outgoing: 106% (inactive)

Incoming: Returns the measured growth for the input compound. Input: O=[N+]([O-])c1cccc(SSc2cccc([N+](=O)[O-])c2)c1
Outgoing: 109% (inactive)

Incoming: Returns the measured growth for the input compound. Input: CCCCCCCCCCCCCCCc1ccc(N)c(OC2OC(CO)C(O)C(O)C2O)c1 (configuration not stated)
Outgoing: 102% (inactive)

Incoming: Returns the measured growth for the input compound. Input: CC(=O)NCC(=O)c1ccc([N+](=O)[O-])cc1
Outgoing: 104% (inactive)

Incoming: Returns the measured growth for the input compound. Input: c1ccc(-c2nc3ccccc3s2)cc1
Outgoing: 97.5% (inactive)

###

Tested on: SW-620 colon
Method: NCI-60 one-dose screen, 48 h (100 = growth as untreated, 0 = no growth, -100 = all killed)
Test Parameters: 10 µM unless noted
About 83,000 compounds went through this panel and 20% of them were active in at least one assay; those are over-represented in the sample as a whole.
Examples of molecules with documented growth follow.
Give the value in % but do not write % after it.

Incoming: Returns the measured growth for the input molecule. Input: COc1ccc(C(=O)CC(c2ccccc2)C(C#N)c2ccccc2)cc1 (stereo not given)
Outgoing: 91.1

Incoming: Returns the measured growth for the input molecule. Input: CC(C)(O)C(=O)O
Outgoing: 110

###

Tested on: OVCAR-8 ovarian
Method: NCI-60 one-dose screen, 48 h (100 = growth as untreated, 0 = no growth, -100 = all killed)
Test Parameters: 10 µM unless noted
About 83,000 compounds went through this panel and 20% of them were active in at least one assay; those are over-represented in the sample as a whole. The source made the active and inactive calls. Rule for the calls: active = growth percent below 10; inactive = the rest.
Readout Label: growth

Past entries and their recorded results:
Compound	Readout Label	Measurement
Cn1cnc([N+](=O)[O-])c1Sc1ncn[nH]1	growth	73.8% (inactive)
COc1cc(C(O)C2C(=O)OCC2C2(c3ccc4c(c3)OCO4)SCCCS2)cc(OC)c1OC (centres undefined)	growth	102% (inactive)
CCCCCCCCCCNC(=O)CI	growth	0.969% (active)

Kindly review the next compound as well.
Incoming: Returns the measured growth for the input compound. Input: CC1CCC2(OC1)OC1CC3C4CC=C5CC(O)CCC5(C)C4CCC3(C)C1C2C (centres undefined)
Outgoing: 102% (inactive)
